Tested on: COLO 205
Experiment: NCI tumour cell line growth inhibition, 48 h
Activity calls are given as the source filed them. Cut-off read from the data, not from the text of the source: active = GI50 up to about 1.1 µM and inactive = higher.
measured.metric: GI50

# compound, GI50
data = [
    ("COC(=O)N1[C@H]2Cc3c(OC)c(C)c(OC)c(OC)c3[C@@H]1/C(=C\\c1cc(OC)c(OC)c(C)c1OC)N(Cc1ccccc1)C2=O", "13.8 µM (inactive)"),
    ("CC1OC(OC2C(CO)OC(O[C@H]3CC[C@@]4(C)C(=CC[C@H]5[C@@H]6C[C@@H]7O[C@](O)(CC[C@H](C)COC8OC(CO)C(O)C(O)C8O)[C@@H](C)[C@@H]7[C@@]6(C)CC[C@@H]54)C3)C(OC3OC(C)C(O)C(O)C3O)C2O)C(O)C(O)C1O (stereo partly drawn)", "5.01 µM (inactive)"),
]

Next:
Kindly indicate its recorded GI50. Item: CC(=O)Oc1cc2c(=O)oc3c(OC(C)=O)c(OC(C)=O)c(OC(C)=O)c4c(=O)oc(c1OC(C)=O)c2c34
59 µM (inactive)

* * *

Test system: ACHN
Test: NCI tumour cell line growth inhibition, 48 h
Calls of active or inactive are those of the source. Cut-off read from the data, not from the text of the source: active = GI50 up to about 1.1 µM and inactive = higher.
measured.metric: GI50

Here is how some molecules turned out for GI50.
# molecule, measured.metric, assay.value
rows = [
    ("Cc1ccccc1NC(=O)C(=O)C(C#N)c1ccc(Cl)cc1 (stereo unspecified)", "GI50", "74.1 µM (inactive)"),
    ("CCOc1cccc2ccc[n+](CC)c12", "GI50", "> 100 µM (inactive)"),
    ("Cc1c(C)c(S(=O)(=O)N(CCCCCCN)OCCCN)c(C)c2c1OC(C)(C)CC2", "GI50", "8.99 µM (inactive)"),
    ("OC1(c2ccccc2)c2ccccc2N=C2NCCN21 (stereo unspecified)", "GI50", "> 100 µM (inactive)"),
]

Answer with reported GI50 of Cc1ccc(/N=N/C(=N/NC(=O)c2cc(Cl)ccc2O)c2ccc(N(CCC#N)CCC#N)cc2C)cc1
24.4 µM (inactive)

Answer with reported GI50 of CNS(=O)(=O)NN(C)S(=O)(=O)c1ccc(OC)cc1
> 100 µM (inactive)

* * *

System: K562
Assay: NCI tumour cell line growth inhibition, 48 h
Active and inactive are the calls of the source. Cut-off read from the data, not from the text of the source: active = GI50 up to about 1.1 µM and inactive = higher.
Entry note: the call must match one of active, inactive

What did this assay record as the result for O=C(NN=C1CCCCC1)Nc1ccccc1Cl ?
inactive

* * *

Test system: U-251
Experiment: NCI tumour cell line growth inhibition, 48 h
The source made the active and inactive calls. No stated cut-off is given here; in the data, active = GI50 up to about 1.1 µM and inactive = higher.
measured.metric: GI50

These solved cases illustrate the format of a correct answer.
# compound, assay.value
records = [
    ("O=C(NCc1ccc(Cl)cc1)c1cc2sccc2nc1C(F)(F)F", "18.9 µM (inactive)"),
    ("COc1cc([C@@H]2c3cc4c(cc3[C@@H](NCCNCCO)[C@H]3COC(=O)[C@H]23)OCO4)cc(OC)c1O", "0.813 µM (active)"),
    ("Cc1cc(S(=O)(=O)Nc2nnc3c4ccccc4cnn23)c(S)cc1Cl", "29.9 µM (inactive)"),
]

Let me know recorded GI50 for O=C(O)CSc1ncccc1[N+](=O)[O-] , thanks.
> 100 µM (inactive)

For the compound Cn1cnc([N+](=O)[O-])c1Sc1nc2cccnc2[nH]1 , report GI50.
> 100 µM (inactive)

* * *

System: TK-10
Test: NCI tumour cell line growth inhibition, 48 h
The source made the active and inactive calls. Cut-off read from the data, not from the text of the source: active = GI50 up to about 1.1 µM and inactive = higher.
measured.metric: GI50

Report value: GI50, system: TK-10, compound: N=C(N)C1CN(CCc2c[nH]cn2)C(=O)NC1=O (stereo not drawn)
> 100 µM (inactive)

* * *

Tested on: SNB-75
Assay: NCI tumour cell line growth inhibition, 48 h
The source made the active and inactive calls. No stated cut-off is given here; in the data, active = GI50 up to about 1.1 µM and inactive = higher.
Recorded GI50 values for a group of compounds are listed next.

Please review the following examples before continuing.
# compound, GI50
measured = [
    ("C#CC(C)(C)Oc1cc(O)c2c(=O)c3ccccc3n(C)c2c1", "40.4 µM (inactive)"),
    ("COc1ccc(C2C(C(=O)O)=C(COC(C)=O)Oc3cc4c(cc32)OCO4)cc1 (stereo unspecified)", "> 100 µM (inactive)"),
    ("COC(=O)c1c(C)cccc1C1CN=NC12Cc1ccc(C)cc1C2=O (stereo unspecified)", "57.5 µM (inactive)"),
    ("O=c1[nH][nH]c(=O)n1Cc1cccc(Cn2c(=O)[nH][nH]c2=O)c1", "> 100 µM (inactive)"),
    ("O=C(CSCC(=O)N/N=C/c1ccc2c(c1)OCO2)N/N=C/c1ccc2c(c1)OCO2", "> 100 µM (inactive)"),
    ("CC(=O)N(C(C)=O)n1c(-c2ccccc2)n[nH]c1=O", "> 100 µM (inactive)"),
    ("O=C1C(N2CCCC2)=CC(=O)c2c(O)c(N3CCCC3)c(Cl)c(O)c21", "> 10 µM (inactive)"),
    ("O=C(O)c1ccc(-c2nc3cc(Cl)ccc3[nH]2)cc1", "> 100 µM (inactive)"),
]

Return reported GI50 for target or system SNB-75, item CCCc1cc(O)c2c(C)c3[nH]c4ccc(Cl)cc4c3c(C)c2n1 .
2.9 µM (inactive)

Supply GI50 measured with SNB-75 for COC(=O)C1=C(O)C(C(=O)OC)[C@]2(O)[C@@H](C(=O)OC)[C@H]1C[C@@H](c1ccccc1)[C@@H]2C(=O)OC (stereo partly specified) .
16.9 µM (inactive)

Answer briefly: GI50 recorded on SNB-75 for O=C(Nc1nncs1)NS(=O)(=O)n1c(=S)sc2ccccc21
> 100 µM (inactive)

Give SNB-75 GI50 for the following compound: CCOC(=O)C1C(c2ccc(Cl)cc2Cl)NC(c2ccc(C)cc2)C(C(=O)OC)S1(=O)=O (stereo unspecified)
20.1 µM (inactive)

Identify measured GI50 obtained with SNB-75 for CCOC(=O)c1c(-c2ccccc2)c(C)cn1C .
> 10 µM (inactive)

With SNB-75 as the test system, provide measured GI50 for this compound: Cn1cnnc1SC(F)(F)c1nc2ccccc2o1
> 100 µM (inactive)

Please report the measured GI50 for CC12CCCC(O)C1CCC1=CC3(CCC12)SCCS3 (stereo unspecified) tested on SNB-75.
> 10 µM (inactive)

Tell me its GI50 on SNB-75: Cc1noc2cccc(O)c12
> 100 µM (inactive)

Tell me its GI50 on SNB-75: Cc1cc2c(=O)cc(-c3cccs3)oc2c(C(=O)O)c1C
1.56 µM (inactive)

Report its GI50 with SNB-75 as the test system: O=C(Nc1ccc(Cl)cc1)c1cc(S(=O)(=O)Nc2n[nH]c(Nc3ccc4ccccc4c3)n2)c(SSc2cc(Cl)c(C(=O)Nc3ccc(Cl)cc3)cc2S(=O)(=O)Nc2n[nH]c(Nc3ccc4ccccc4c3)n2)cc1Cl
23 µM (inactive)

Report GI50 on SNB-75 for this entry: O=c1[nH]c(-c2ccc(-c3nc4cc([N+](=O)[O-])ccc4c(=O)[nH]3)cc2)nc2cc([N+](=O)[O-])ccc12
42.1 µM (inactive)

Please tell me the measured GI50 for CC1CCC(O)C(C(O)CC2CC(=O)N(C)C(=O)C2)C1 (stereo unspecified) ; system: SNB-75.
> 100 µM (inactive)

Please report GI50 with SNB-75 for item Cc1cccc(Nc2nc3ccccc3nc2NS(=O)(=O)c2ccccc2)c1 .
14.4 µM (inactive)

* * *

Test system: COLO 205
Experiment: NCI tumour cell line growth inhibition, 48 h
Calls of active or inactive are those of the source. No stated cut-off is given here; in the data, active = GI50 up to about 1.1 µM and inactive = higher.
Reply using exactly one outcome from t for active, f for inactive

# compound, class.assignment
data = [
    ("CCOC(=O)c1nc2ccccc2nc1Nc1ccc(OC)c(OC)c1", "f"),
    ("N#Cc1cn(-c2c3ccccc3nc3ccccc23)c(=O)[nH]c1=O", "f"),
    ("COc1cccc2c1C(=O)c1c(O)c3c(c(O)c1C2=O)C[C@@](O)(/C(C)=N/NC(=O)c1ccc(Cl)c(Cl)c1)C[C@@H]3OC1CC(N)C(O)C(C)O1 (stereo not given in full)", "t"),
    ("CCCCCC(CO)C(O)(C(F)(F)F)C(F)(F)F (stereo not given)", "f"),
]

Field: outcome | Entry: CCCc1ccc(OCC(=O)N/N=C/c2c(-c3ccccc3)[nH]c3ccccc23)cc1
f

* * *

System: TK-10
Test: NCI tumour cell line growth inhibition, 48 h
Active and inactive are the calls of the source. Cut-off read from the data, not from the text of the source: active = GI50 up to about 1.1 µM and inactive = higher.
Mark one answer only. Choices: active, inactive

# molecule, measurement.target, class.assignment
measured = [
    ("O=C1N(c2ccccc2)C2(c3ccccc3)CC3CCCC13S2 (stereo unspecified)", "TK-10", "active"),
]

Called result for CC1=C(C#N)C(N)=C2C(C)=C(C#N)C(N)=C12
inactive

Outcome logged for O=c1cc(-c2ccccc2)[nH]c2cc(F)c(F)cc12 in this assay:
inactive

Answer briefly: the call reported for CC(C)CC1c2[nH]c3ccccc3c2C[C@H]2C(=O)NC(CCCCNC(=O)OC(C)(C)C)C(=O)N12 (stereo partly specified) in this assay.
inactive

Short answer needed: outcome of this test for CCN(CC)CCN1C(=O)c2c(c(-c3ccccc3)c3ccccc3c2-c2ccccc2)C1=O ?
inactive

Per the assay record, what outcome was assigned to COc1ccc(/C=C2\N=C3Sc4c([nH]cnc4=O)N3C2=O)cc1 ?
inactive

Test call for this molecule, please: Cc1cc(NS(=O)(=O)c2ccc(Nc3c4ccccc4nc4c(C(=O)Nc5ccc(S(N)(=O)=O)cc5)cccc34)cc2)no1
inactive

What did the test return for COc1ccc2[nH]c3c(C)c4ccnc(NCCCN(C)CCCNC(=O)NCCCN(C)CCCNc5nccc6c(C)c7[nH]c8ccc(OC)cc8c7c(C)c56)c4c(C)c3c2c1 ?
inactive

Could you check what this test reported for CCNC(=S)Nc1c(C#N)c2n(c1C(=O)OCC)CCCCC2 ?
inactive

Any idea what this test logged for COc1ccc2c(ccc3c(COC(=O)NC(C)C)c(COC(=O)NC(C)C)n(C)c32)c1 ?
inactive

Field: outcome | Entry: O=C1C2C3C=C4c5ccccc5N(c5ccccc5)C4([C@@H]2C(=O)N1c1ccc(F)cc1)[C@H]1C(=O)N(c2ccc(F)cc2)C(=O)[C@@H]31 (stereo partly specified)
inactive

Identify the outcome logged in this assay for the molecule shown: COc1ccc(CC(C)NCC(O)c2ccc(O)c(NC=O)c2)cc1 (stereo unspecified)
inactive

Hi, sorry to bother you, what did the test record for CC(C)(C)C1CCC2c3c([nH]c4ccccc34)C3C(=O)N(c4ccc(Br)cc4)C(=O)C3C2C1 (stereo unspecified) ?
inactive

Recorded test call requested for CCCCCC(CO)C(O)(C(F)(F)F)C(F)(F)F (stereo unspecified)
inactive

Hi, do you know how COC(=O)Nc1nc2cc(NS(=O)(=O)c3ccc(F)cc3)ccc2[nH]1 came out in this test?
inactive
